B1: Zinc finger MYM-type protein 3, residues 405 to 444; numbered along this chain, Q14202 (parent)
chain: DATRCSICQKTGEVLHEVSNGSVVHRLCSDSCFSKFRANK

- Variants of: B1
- TEST SUMMARY: abundance fitness (aPCA) (normalised: wild type 0, dead -1); higher = more abundant; growth selection in yeast, the domain comes from the species named
- MEASUREMENT CONDITIONS: Homo sapiens
PARAMETER MEASURED: abundance fitness
// no unit, no text: just the number

Lookup: GET /values?readout=abundance fitness&item= V24Y
Found: -0.133

Lookup: GET /values?readout=abundance fitness&item= K10F
Found: -0.595

Lookup: GET /values?readout=abundance fitness&item= A2D
Found: 0.305

Lookup: GET /values?readout=abundance fitness&item= E17A
Found: -0.759

Lookup: GET /values?readout=abundance fitness&item= L27N
Found: -0.618

Lookup: GET /values?readout=abundance fitness&item= R4T
Found: -0.125

Lookup: GET /values?readout=abundance fitness&item= C28I
Found: -0.95

Lookup: GET /values?readout=abundance fitness&item= C32G
Found: -0.576

Lookup: GET /values?readout=abundance fitness&item= K35E
Found: 0.166

Lookup: GET /values?readout=abundance fitness&item= R26E
Found: -0.283

Lookup: GET /values?readout=abundance fitness&item= K10G
Found: -0.09

Lookup: GET /values?readout=abundance fitness&item= K10I
Found: -0.417

Lookup: GET /values?readout=abundance fitness&item= H16P
Found: -0.605

Lookup: GET /values?readout=abundance fitness&item= R37V
Found: -0.23

Lookup: GET /values?readout=abundance fitness&item= V18H
Found: -0.209

Lookup: GET /values?readout=abundance fitness&item= H16I
Found: -0.701

Lookup: GET /values?readout=abundance fitness&item= R37T
Found: 0.043

Lookup: GET /values?readout=abundance fitness&item= E13H
Found: -0.204

Lookup: GET /values?readout=abundance fitness&item= Q9E
Found: 0.023

Lookup: GET /values?readout=abundance fitness&item= S31F
Found: -0.166

Lookup: GET /values?readout=abundance fitness&item= S6N
Found: -0.218

Lookup: GET /values?readout=abundance fitness&item= L27F
Found: -0.019
